I'd be grateful if you could share measured pKd for these entries.
System tested: T1, recombinant human interleukin-18 (human, UniProt Q14116 37-193)
T1 construct: Commercially available recombinant human IL-18; also called IL-18; free IL-18
T1 sequence (looked up): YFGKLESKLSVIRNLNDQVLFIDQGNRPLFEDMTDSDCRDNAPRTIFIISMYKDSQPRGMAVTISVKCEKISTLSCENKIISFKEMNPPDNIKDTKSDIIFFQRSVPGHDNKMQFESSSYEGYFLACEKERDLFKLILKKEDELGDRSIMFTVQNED
Run description: titration of antibody with a defined IL-18 molarity; KD from EC50 by Law of Mass Action
Answers are plain numbers, as −log10 of the molar value.

Antibody 109A6 (antibody, V domains shown, Mouse hybridoma monoclonal antibody) VH: EVQLQQSGAELVKPGASVKLSCTASGFKIKDTYIHWVIQRPAQGLEWIGRIDPANGNTIYGSKFQGKATLTADTSSNTAYIHLSSLTSGDSAVYYCAGYVWFAYWGQGTLVTVSA VL: DVVMTQVPLSLPVSLGDQASISCRSSQRLVHSNGNTYLHWFLQKPGQSPKLLIYTVSNRFSGVPDRFSGSGSGTDFTLKISRVEAEDLGVYFCSQSTLVPWTFGGGTKLEIK
11.00

Recorded result, Antibody 132H4 (antibody, V domains shown, Mouse hybridoma monoclonal antibody) VH: EVKLVESGGGLVKPGGSLKLSCAASGFTFSNYAMSWVRQNPAKRLEWVATISSGGANIYYPDSVKGRFIISRDNARNTLYLQMSSLRSEDTAMYYCARGDYFNHFWFAYWGQGTLVTVSA VL: DVLMTQTPLSLPVSLGDQASISCRSSQSIVHSNGNTYLEWYLQKPGQSPKFLIYKVSNRFSGVPDRFSGSGSGTDFTLKINRVEAEDLGIYYCFQGSHVPWTFGGGTKLEIK , pKd: 11.30

This collection of values is drawn from patent US20210188968A1.
